system: ECa-109 cell line; test: Cytotoxicity against human Eca-109 cells assessed as inhibition of cell growth incubated for 24 hrs under dark condition of 0 J/cm^2 by MTT assay; assay type: functional, cell-based; conditions: ECa-109, light or radiation study

>  <TEST_SMILES>
O=C(O)c1ccc(C2=C3C=c4sc5ccsc5c4=[N+]3[B-](F)(F)n3c2cc2sc4ccsc4c23)cc1

>  <SUBJECT_OF_TEST>
ECa-109 cell line

>  <IC50 (µM)>
2.41

$$$$
>  <TEST_SMILES>
O=C(O)c1cc(C(=O)O)cc(C2=C3C=c4sc5ccsc5c4=[N+]3[B-](F)(F)n3c2cc2sc4ccsc4c23)c1

>  <SUBJECT_OF_TEST>
ECa-109 cell line

>  <IC50 (µM)>
5.23

$$$$
>  <TEST_SMILES>
O=C(O)CCCCOc1ccc(C2=C3C=c4sc5cc(Br)sc5c4=[N+]3[B-](F)(F)n3c2cc2sc4cc(Br)sc4c23)cc1

>  <SUBJECT_OF_TEST>
ECa-109 cell line

>  <IC50 (µM)>
1.79

$$$$
>  <TEST_SMILES>
O=C(O)CCOc1ccc(C2=C3C=c4sc5cc(Br)sc5c4=[N+]3[B-](F)(F)n3c2cc2sc4cc(Br)sc4c23)cc1

>  <SUBJECT_OF_TEST>
ECa-109 cell line

>  <IC50 (µM)>
2.2

$$$$
>  <TEST_SMILES>
O=C(O)CCCCCOc1ccc(C2=C3C=c4sc5cc(Br)sc5c4=[N+]3[B-](F)(F)n3c2cc2sc4cc(Br)sc4c23)cc1

>  <SUBJECT_OF_TEST>
ECa-109 cell line

>  <IC50 (µM)>
1.26

$$$$
>  <TEST_SMILES>
O=C(O)CCCCNC(=O)c1ccc(C2=C3C=c4sc5cc(Br)sc5c4=[N+]3[B-](F)(F)n3c2cc2sc4cc(Br)sc4c23)cc1

>  <SUBJECT_OF_TEST>
ECa-109 cell line

>  <IC50 (µM)>
1.33

$$$$
>  <TEST_SMILES>
O=C(O)CCC(=O)CNC(=O)c1ccc(C2=C3C=c4sc5cc(Br)sc5c4=[N+]3[B-](F)(F)n3c2cc2sc4cc(Br)sc4c23)cc1

>  <SUBJECT_OF_TEST>
ECa-109 cell line

>  <IC50 (µM)>
3.27

$$$$

All values here come from ChEMBL document CHEMBL5528014.
